B1: TPR t1 (parent)
chain: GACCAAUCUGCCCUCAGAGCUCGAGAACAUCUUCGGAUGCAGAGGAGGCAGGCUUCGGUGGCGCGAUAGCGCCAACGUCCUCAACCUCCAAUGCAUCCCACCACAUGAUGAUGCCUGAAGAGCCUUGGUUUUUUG

- Variants of: B1
- test.protocol: polymerase ribozyme fitness, log enrichment relative to wild type (log ratio); higher = more active; in vitro selection for triplet polymerase activity
# label = bin(measured polymerase ribozyme fitness (log ratio)), where bins are low value = under -3, medium value = from -3 up to -2, high value = -2 and over

Reference set, count: 5
[
  {
    "variant.description": "C12U A16C G42U U78A A121C",
    "class.assignment": "high value"
  },
  {
    "variant.description": "C22G C94G",
    "class.assignment": "low value"
  },
  {
    "variant.description": "G71A G120C G127A U131G",
    "class.assignment": "high value"
  },
  {
    "variant.description": "G39C C72U G93U A121U",
    "class.assignment": "high value"
  },
  {
    "variant.description": "C4U U54A C72G C82A C114A",
    "class.assignment": "low value"
  }
]

Task item: Which polymerase ribozyme fitness (log ratio) band matches G17A G19U U55A C82A C114A ?
Reply: low value

Task item: Which polymerase ribozyme fitness (log ratio) band matches G57C C114G U131C ?
Reply: medium value

Task item: Which polymerase ribozyme fitness (log ratio) band matches A16G U92C C102A ?
Reply: low value
